meta.source: patent US20260184782A1

TESTED_TARGET: T1, recombinant human TIGIT (human, UniProt Q495A1 22-141, limits assumed)
T1 construct: recombinant human TIGIT used in Carterra SPR; also called hTIGIT
T1 sequence (looked up): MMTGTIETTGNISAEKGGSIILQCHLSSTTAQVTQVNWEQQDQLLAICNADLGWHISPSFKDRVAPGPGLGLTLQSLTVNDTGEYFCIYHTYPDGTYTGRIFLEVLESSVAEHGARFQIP
EXPERIMENTAL_DETAILS: SPR Carterra, average
MEASURED_QUANTITY: log10 of koff (log10 of the value in s⁻¹)
Scale: log10; quantity: koff; unit before log: s⁻¹

Take a look at these entries with their results.
TIGIT-SC159 (Fc fusion, VHH-Fc fusion in assay) VHH: EVQLVESGGGLVQPGGSLRLSCAASGFTFDRSWMGWFRQAPGKEREWVASVLRGGYTWYADSVKGRFTISADNSKNTAYLQMNSLKPEDTAVYYCAREGRSSSPWFDPWGQGTLVTVSS; -2.84
TIGIT-SC89 (Fc fusion, VHH-Fc fusion in assay) VHH: EVQLVESGGGLVQPGGSLRLSCAASGSMSSINAMGWFRQAPGKEREFVAAINYEGDRTYYADSVKGRFTISADNSKNTAYLQMNSLKPEDTAVYYCARWTRGLVSGTYYYYMDVWGQGTLVTVSS; -2.53
TIGIT-SC146 (Fc fusion, VHH-Fc fusion in assay) VHH: EVQLVESGGGLVQPGGGLRLSCAASGFTLENNMMGWFRQAPGKEREFVAAISASGTLRAYADSVKGRFTISADNSKNTAYLQMNSLKPEDTAVYYCAKGGQAGPMAFYFDYWGQGTLVTVSS; -0.62

Query string: For the binder TIGIT-SC33 (Fc fusion, VHH-Fc fusion in assay) VHH: EVQLVESGGGLVQPGGSLRLSCAASGFLFDSYAMGWFRQAPGKEREFVAAVSQSGLLTFYADSVKGRFTISADNSKNTAYLQMNSLKPEDTAVYYCASRTSSWWWFDPWGQGTLVTVSS , what log10 of koff is on record?
Result string: -2.97

Query string: Consider next the binder TIGIT-SC211 (Fc fusion, VHH-Fc fusion in assay) VHH: EVQLVESGGGLVQPGGSLRLSCAASGFSFSMYVMGWFRQAPGKEREFVAAIWRSGTLKAYADSVKGRFTISADNSKNTAYLQMNSLKPGDTAVYYCARDHRAMVAPFDYWGQGTLVTVSS in the same way.
Result string: -4.07

Query string: Consider next the binder TIGIT-SC148 (Fc fusion, VHH-Fc fusion in assay) VHH: EVQLVESGGGLVQPGGSLRLSCAASGDIGSINAMGWFRQAPGKEREFVAGIWRSGNLKAYADSVKGRFTISADNSKNTAYLQMSSLKPEDTAVYYCARGNIVVVPAAFVIWFDPWGQGTLVTVSS in the same way.
Result string: -0.80

Query string: Consider next the binder TIGIT-SC128 (Fc fusion, VHH-Fc fusion in assay) VHH: EVQLVESGGGLVQPGGSLRLSCAASGFIGNYHAMGWFRQAPGKEREFVARITSGGSTYYADSVKGRFTISADNSKNTAYLQMNSLKPEDTAVYYCGGFGNWGQGTLVTVSS in the same way.
Result string: -2.15

Query string: Consider next the binder TIGIT-SC43 (Fc fusion, VHH-Fc fusion in assay) VHH: EVQLVESGGGLVQPGGSLRLSCAASGFTFADYAMGWFRQAPGKEREMVAAIGWNSGTTEYADSVKGRFTISADNSKNTAYLQMNSLKPEDTAVYYCARDTNGWFFDFWGQGTLVTVSS in the same way.
Result string: -2.89
